Molecular target: SARS-COV-2 RBD-MMH (SARS-COV-2 RBD extracellular domain with C-terminal myc-myc-hexahistidine tag) (SARS-CoV-2)
Answer each item with its documented t½ at pH 6.0.
Quick reminder: number only, in min, skip the unit.

IN: Read off the recorded t½ at pH 6.0 for mAb15165 (antibody, V domains shown) VH: EVQLVESGGGLVQPGGSLRLSCAASGFTVSSNYMSWVRQAPGKGLEWVSAIYSGDSTYYADSVKGRFTISKDNSKNTLYLQMNSLRGEDTAVYYCARLGGALQAYDGAFDYWGQGTLATVSS VL: QSALTQPASVSGSPGQSITISCTGTSSDFGSYNLVSWYQQHPGKAPKLMIYEGNKRPSGVSIRFSGSKSGNTASLTISGLQAEDEADYYCSSYAGSSTWVFGGGTKLTVLG
OUT: 9.1

IN: Item mAb15163 (antibody, V domains shown) VH: EVQLVETGGGLIQPGESLRLSCAASGFIVSTNYMNWVRQAPGKGLEWVSVIYRGGSTYYADSVKGRFTISRDNSKNTLFLQMNSLRAEDTAVYYCARGHEDFDYDTPASGAFDIWGQGTMVTVSS VL: QSALTQPPSASGSPGQSVTISCTGTSSDVGGHNYVSWYQQHPGKAPKVMIYEVSKRPSGVPDRFSGSKSGNTASLTVSGLQAEDEADYYCSSYAGSNKFVFGTGTKVTVLG : provide t½ at pH 6.0
OUT: 11.1

IN: Return value of t½ at pH 6.0 for input mAb15160 (antibody, V domains shown) VH: EVQLVESGGGLVQPGGSLRLSCSASGFTFSRYAMYWVRQAPGKGLEYVSAISSDGGSTYDADSVKGRFTISRANSKNTLYLQMSSLRAEDTAVYYCVKGLRELLYYYYGMDVWGQGTTVTVSS VL: DIQMTQSPSSLSASVGDRVTITCRAGQSISSFLNWYQQKPGKAPKLLIYAASSLQSGVPSRFSGSGSGTDFTLTISSLQPEDFATYYCQQSYITPFTFGPGTKVDIKR , no commentary.
OUT: 4.1
